Below, each of the molecules is paired with its reported pIC50 value.
experimental system: H1047R PIK3CA enzyme (Homo sapiens, UniProt P42336, H1047R)
Sequence (P42336 whole entry H1047R): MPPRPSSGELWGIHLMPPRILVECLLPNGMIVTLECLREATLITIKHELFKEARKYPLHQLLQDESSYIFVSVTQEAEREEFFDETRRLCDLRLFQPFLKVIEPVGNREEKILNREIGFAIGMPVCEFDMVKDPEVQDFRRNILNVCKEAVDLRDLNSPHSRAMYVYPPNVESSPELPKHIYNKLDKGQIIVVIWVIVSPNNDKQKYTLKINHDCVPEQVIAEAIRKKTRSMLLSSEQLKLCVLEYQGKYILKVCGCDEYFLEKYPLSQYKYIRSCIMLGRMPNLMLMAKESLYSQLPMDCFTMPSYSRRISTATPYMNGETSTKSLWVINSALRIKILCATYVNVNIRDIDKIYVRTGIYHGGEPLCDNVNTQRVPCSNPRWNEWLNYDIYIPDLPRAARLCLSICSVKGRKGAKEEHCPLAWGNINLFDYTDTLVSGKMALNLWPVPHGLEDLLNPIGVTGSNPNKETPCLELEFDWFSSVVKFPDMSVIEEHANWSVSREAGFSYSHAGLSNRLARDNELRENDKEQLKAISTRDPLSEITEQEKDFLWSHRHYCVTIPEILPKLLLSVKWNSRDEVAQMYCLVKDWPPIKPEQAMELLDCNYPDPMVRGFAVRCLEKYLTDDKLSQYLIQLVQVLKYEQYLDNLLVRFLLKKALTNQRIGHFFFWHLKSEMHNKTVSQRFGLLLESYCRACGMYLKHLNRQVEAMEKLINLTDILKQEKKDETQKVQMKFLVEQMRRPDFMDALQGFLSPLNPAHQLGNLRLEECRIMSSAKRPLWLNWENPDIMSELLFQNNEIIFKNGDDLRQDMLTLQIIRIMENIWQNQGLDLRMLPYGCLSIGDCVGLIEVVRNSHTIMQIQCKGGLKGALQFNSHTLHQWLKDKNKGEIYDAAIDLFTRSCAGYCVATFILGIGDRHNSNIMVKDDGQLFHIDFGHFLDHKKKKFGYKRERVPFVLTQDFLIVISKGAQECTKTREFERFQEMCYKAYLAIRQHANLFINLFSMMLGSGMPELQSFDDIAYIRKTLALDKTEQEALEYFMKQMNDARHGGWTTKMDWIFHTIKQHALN
Sequence (P27986 whole entry partner): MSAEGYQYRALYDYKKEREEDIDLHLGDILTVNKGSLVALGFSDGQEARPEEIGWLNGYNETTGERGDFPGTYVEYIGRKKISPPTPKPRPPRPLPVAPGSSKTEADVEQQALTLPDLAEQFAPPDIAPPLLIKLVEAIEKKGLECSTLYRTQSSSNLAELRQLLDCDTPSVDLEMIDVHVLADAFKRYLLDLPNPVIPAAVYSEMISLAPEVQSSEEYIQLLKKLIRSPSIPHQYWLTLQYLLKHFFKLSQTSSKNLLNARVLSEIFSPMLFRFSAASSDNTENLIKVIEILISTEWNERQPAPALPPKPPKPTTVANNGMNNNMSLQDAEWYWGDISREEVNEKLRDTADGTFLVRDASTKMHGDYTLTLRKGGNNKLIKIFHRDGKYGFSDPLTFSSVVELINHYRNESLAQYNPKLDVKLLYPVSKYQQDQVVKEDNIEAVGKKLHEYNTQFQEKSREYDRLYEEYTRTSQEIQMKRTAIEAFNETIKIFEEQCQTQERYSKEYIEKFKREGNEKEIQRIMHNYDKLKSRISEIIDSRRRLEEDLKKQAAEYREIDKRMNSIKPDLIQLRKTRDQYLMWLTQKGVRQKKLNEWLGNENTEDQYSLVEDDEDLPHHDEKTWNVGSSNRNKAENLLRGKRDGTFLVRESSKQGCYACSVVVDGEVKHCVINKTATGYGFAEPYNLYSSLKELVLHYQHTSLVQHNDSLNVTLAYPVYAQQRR
experiment description: ADP-Glo Biochemical PIK3CA Kinase Assay
pIC50: −log10 of the molar value.

Consider the worked cases shown below.
1. O=C1N[C@@H](c2ccccc2Cl)c2c(NC(=O)c3csc4ccccc34)ccnc21; 5.00 to 6.00
2. Cc1ccccc1[C@@H]1NC(=O)c2nccc(NC(=O)N3CCc4ccccc43)c21; 6.30 to 7.00
3. CS(=O)(=O)c1cc(F)cc(C(=O)Nc2cc(Br)cc3c2C(c2cc(F)ccc2Cl)NC3=O)c1 (centres unmarked); 4.00 to 5.00
4. O=C(Nc1cc(/N=C2/N[C@@H](C(F)(F)F)CO2)cc2c1[C@@H](c1cc(F)ccc1Cl)NC2=O)c1cc(F)cc(C(F)(F)F)c1 (single isomer, unassigned); 5.00 to 6.00
5. O=C(Nc1cc(-c2ccc(=O)n(C3CC3)c2)cc2c1[C@@H](c1cc(F)ccc1Cl)NC2=O)c1cc(F)cc(C(F)(F)F)c1; 5.00 to 6.00
6. O=C(Nc1cc(Br)cc2c1C(c1cc(F)ccc1Cl)NC2=O)c1cccc(C(F)(F)F)n1 (centres unmarked); 5.00 to 6.00
7. O=C(Nc1cc(-c2c[nH]nn2)cc2c1C(c1cc(F)ccc1Cl)NC2=O)c1cc(F)cc(C(F)(F)F)c1 (centres unmarked); ≥ 7.00
8. O=C(Nc1cc(Br)cc2c1C(c1cc(F)ccc1Cl)NC2=O)c1cc(F)cc(CC(F)(F)F)c1 (centres unmarked); 6.00 to 6.30

Q. Which pIC50 is listed for Nc1cc(NC(=O)c2cc(F)cc(C(F)(F)F)c2)cc2c1C(c1cc(F)ccc1C(F)F)NC2=O (centres unmarked) ?
A. 4.00 to 5.00

Q. Look at this molecule and give its reported pIC50. O=C(Nc1cc(-c2cnsc2)cc2c1C(c1cc(F)ccc1Cl)NC2=O)c1cc(F)cc(C(F)(F)F)c1 (centres unmarked)
A. ≥ 7.00

Q. # pIC50 lookup, item `O=C(Nc1cc(-c2cn[nH]c2)nc2c1[C@@H](c1cc(F)ccc1Cl)NC2=O)c1cc(F)cc(Cl)c1`
A. 5.00 to 6.00

====

experimental system: H1047R PIK3CA enzyme (Homo sapiens, UniProt P42336, H1047R)
experiment description: ADP-Glo Biochemical PIK3CA Kinase Assay
Procedure: Compounds to be assayed were plated in 16 doses of 1:2 serial dilutions (20 nL volume each well) on a 1536-well plate, and the plate warmed to room temperature. […] To the well was added 1 μL of 200 μM ATP and 20 μM of diC8-PIP2 in Substrate Assay Buffer (50 mM HEPES pH7.4, 50 mM NaCl, 5 mM DTT and 0.03% CHAPS) to start the reaction, and the plate was shaken for 10 seconds, then spun briefly at 1500 rpm, and then incubated for 60 minutes at room temperature. […]
pIC50: −log10 of the molar value.
Entries and their pIC50 values follow.

1) N#Cc1cnn(Cc2cc(NC(=O)N3C[C@@](O)(C(F)(F)F)c4cc(F)ccc43)c3c(c2)C(=O)N[C@H]3c2cc(F)ccc2Cl)c1 (single isomer, unassigned) [Compound I-2672]; 4.00 to 5.00
2) CC1(Nc2cc(NC(=O)c3cc(F)cc(C(F)(F)F)c3)c3c(c2)C(=O)N[C@@H]3c2cc(F)ccc2Cl)COC1 [Compound I-829]; 6.00 to 6.30

Next, consider the following compound.
Q. Hello, I am looking for reported pIC50 with H1047R PIK3CA enzyme (Homo sapiens, UniProt P42336, H1047R) for N#CN1CC(Oc2cc(NC(=O)c3cc(F)cc(C(F)(F)F)c3)c3c(c2)C(=O)NC3c2cc(F)ccc2Cl)C1 (stereo not drawn) [Compound I-1205] . Could you help?
A. ≥ 7.00

====

Measured IC50 by item
experimental system: H1047R PIK3CA enzyme (Homo sapiens, UniProt P42336, H1047R)
experiment description: ADP-Glo Biochemical PIK3CA Kinase Assay

1. O=C1N[C@@H](c2cc(F)ccc2Cl)c2c(NC(=O)N3C[C@](O)(C(F)(F)F)c4cc(F)ccc43)cc(N3CCOC3=O)cc21 (single isomer, unassigned) [Compound I-2676]; 10 to 100 µM
2. O=C1NC(c2cc(F)ccc2Cl)c2c(NC(=O)c3nsc4ccccc34)cc(Br)cc21 (stereo not shown) [Compound I-144]; ≤ 0.1 µM
3. Cc1ccc(F)cc1C1NC(=O)c2cccc(NC(=O)c3cc(F)cc(C(F)(F)F)c3)c21 (stereo not shown) [Compound I-281]; 0.1 to 0.5 µM

Q. // map O=C1NC(c2cc(F)ccc2Cl)c2c(CN3CCCCC3=O)cc(-c3ccc4ncnn4c3)cc21 (stereo not shown) [Compound I-1999] to recorded IC50 (system: H1047R PIK3CA enzyme (Homo sapiens, UniProt P42336, H1047R))
A. 10 to 100 µM

Q. Recall the recorded IC50 for CC(=O)N1CC2(C1)CN(c1cc(NC(=O)c3cc(F)cc(C(F)(F)F)c3)c3c(c1)C(=O)NC3c1cc(F)ccc1Cl)C2 (stereo not shown) [Compound I-1301] with H1047R PIK3CA enzyme (Homo sapiens, UniProt P42336, H1047R) and state it.
A. 0.1 to 0.5 µM

Q. Item: N#Cc1cnccc1-c1cc(NC(=O)c2cc(F)cc(C(F)(F)F)c2)c2c(c1)C(=O)N[C@H]2c1cc(F)ccc1Cl (stereo in doubt) [Compound I-1232] Test system: H1047R PIK3CA enzyme (Homo sapiens, UniProt P42336, H1047R) Read-out: IC50 Value: ?
A. ≤ 0.1 µM

Q. Which IC50 is reported with H1047R PIK3CA enzyme (Homo sapiens, UniProt P42336, H1047R) for this entry: O=C1NC(c2cc(F)ccc2Cl)c2c(NC(=O)C3CCC3)cc(-c3ccc4ncnn4c3)cc21 (stereo not shown) [Compound I-1778] ?
A. 10 to 100 µM

====

experiment description: cells
condition: Homo sapiens, MCF-10A, read-out: MCF10A IC50
pIC50: −log10 of the molar value.
This listing pairs molecules with measured pIC50.

Some solved entries appear below for comparison.
1) Cn1cnc(Nc2cc(NC(=O)c3cc(F)cc(C(F)(F)F)c3)c3c(c2)C(=O)NC3c2cc(F)ccc2Cl)n1 (stereo not drawn) [Compound I-976]; > 6.00
2) O=C(Nc1cc(-c2cnn(C3CC3)c2)cc2c1[C@H](c1cc(F)ccc1Cl)NC2=O)c1cc(F)cc(C(F)(F)F)c1 (single isomer, unassigned) [Compound I-1022]; > 6.00

Q. I'd like to know its pIC50. The molecule in question is O=C(Nc1cccc2c1[C@H](c1cc(F)ccc1Cl)NC2=O)c1cc(F)cc(C(F)(F)F)c1 [Compound I-500]
A. > 6.00

====

experimental system: H1047R PIK3CA enzyme (Homo sapiens, UniProt P42336, H1047R)
experiment description: ADP-Glo Biochemical PIK3CA Kinase Assay
Method: Compounds to be assayed were plated in 16 doses of 1:2 serial dilutions (20 nL volume each well) on a 1536-well plate, and the plate warmed to room temperature. […] To the well was added 1 μL of 200 μM ATP and 20 μM of diC8-PIP2 in Substrate Assay Buffer (50 mM HEPES pH7.4, 50 mM NaCl, 5 mM DTT and 0.03% CHAPS) to start the reaction, and the plate was shaken for 10 seconds, then spun briefly at 1500 rpm, and then incubated for 60 minutes at room temperature. […]
Listed compounds paired with reported IC50

Q. Look at this compound and give its reported IC50. O=C(Nc1cccc2c1[C@H](C1CCC(F)(F)CC1)NC2=O)c1cc(F)cc(C(F)(F)F)c1 [Compound I-2073]
A. 10 to 100 µM

Q. Fill in the blank: the reported IC50 of O=C(Nc1cc(Br)cc2c1C(c1cc(F)ccc1Cl)NC2=O)c1ccc(OC(F)(F)F)c(F)c1 (stereo not shown) is ____.
A. 1 to 10 µM

Q. Query (compound): O=C1N[C@H](c2cc(F)ccc2Cl)c2c(NC(=O)N3C[C@H](O)c4cc(F)ccc43)cc(-n3cccn3)cc21 (single isomer, unassigned) ; field requested: IC50
A. 1 to 10 µM

Q. Returns the measured IC50 for the input compound. Input: COc1cnccc1-c1cc(NC(=O)c2cc(F)cc(Cl)c2)c2c(n1)C(=O)NC2c1cc(F)ccc1Cl (stereo not shown)
A. 0.1 to 0.5 µM

Q. Fill in: IC50 of O=C1N[C@H](c2cc(F)ccc2Cl)c2c(NC(=O)N3C[C@@H](O)c4cccc(F)c43)cccc21 (single isomer, unassigned) is ___
A. 10 to 100 µM

Q. Item O=C(Nc1cc(OC2CNC2)cc2c1C(c1cc(F)ccc1Cl)NC2=O)c1cc(F)cc(C(F)(F)F)c1 (stereo not shown) has what recorded IC50?
A. 0.1 to 0.5 µM

Q. // query IC50 value for entry CCCCc1ccc(Cl)c(C2NC(=O)c3cccc(NC(=O)c4cc(O)cc(C(F)(F)F)c4)c32)c1 (stereo not shown)
A. 1 to 10 µM
